Listed below: EC50 values for each entry.
Biological target: Arabidopsis thaliana SHMT
Experiment: SHMT activity assay (ED50 SHMT), coupled with N5,N10-CH2-THF dehydrogenase, NADH at 340 nm
Assay type: biochemical
Conditions: Table 2; values given as upper bounds

Under Arabidopsis thaliana SHMT: EC50 value of CCC1(c2cc(C(F)(F)F)cc(C(F)(F)F)c2)C(C#N)=C(N)Oc2[nH]nc(COC)c21 (stereo not drawn) [Compound 2.82.] ? < 1 µM

Lookup: EC50 / Arabidopsis thaliana SHMT / Cc1n[nH]c2c1C(CCC(F)(F)F)(c1cccc(C(F)(F)F)c1)C(C#N)=C(N)O2 (stereo not drawn) [Compound 2.101.] < 10 µM

Kindly state the measured EC50 obtained for CCOC(=O)COc1ccc(C2(CC)C(C#N)=C(N)Oc3[nH]nc(C)c32)cc1[N+](=O)[O-] (racemic) [Compound 2.43.] with Arabidopsis thaliana SHMT. < 1 µM

Reported EC50 for Arabidopsis thaliana SHMT, given CCC1(c2ccc(C(C)(C)C)cc2)C(C#N)=C(N)Oc2[nH]nc(C)c21 (stereo not drawn) [Compound 2.7.] ? < 10 µM

Test system Arabidopsis thaliana SHMT; read-out EC50; what value for COC(=O)c1cc(OC(F)(F)F)cc(-c2cc(C#N)cc(C3(C4CCC4)C(C#N)=C(N)Oc4[nH]nc(C)c43)c2)c1 (stereo not drawn) [Compound 2.551] ? < 0.1 µM

Give recorded EC50 with Arabidopsis thaliana SHMT for the following compound: CCC1(c2ccc(Oc3ccccc3)cc2)C(C#N)=C(N)Oc2[nH]nc(C(C)C)c21 (racemic) [Compound 2.160.] < 10 µM

***
Lab request: please report EC50 under test system Arabidopsis thaliana SHMT for COC(=O)c1ccc(-c2cc(C#N)cc(C3(C4CCC4)C(C#N)=C(N)Oc4[nH]nc(C)c43)c2)cc1Cl (stereo not drawn) [Compound 2.546] < 0.1 µM

Requested read-out EC50, target or system Arabidopsis thaliana SHMT, entry COc1ccc(C2(C(C)(C)F)C(C#N)=C(N)Oc3[nH]nc(C)c32)cc1Cl (stereo not drawn) [Compound 2.620] < 0.01 µM

Please provide the recorded EC50 for CCC1(c2cc(C)cc(Br)c2)C(C#N)=C(N)Oc2[nH]nc(C)c21 (stereo not drawn) [Compound 2.469] , tested on Arabidopsis thaliana SHMT. < 0.01 µM

Short answer please: EC50, Arabidopsis thaliana SHMT, entry Cc1n[nH]c2c1C(c1cc(Cl)cc(Oc3ccc(O)cc3[N+](=O)[O-])c1)(C1CCC1)C(C#N)=C(N)O2 (stereo not drawn) [Compound 2.481] < 0.01 µM

Field: EC50 (Arabidopsis thaliana SHMT). Entry: CCC1(c2cccc(Cl)c2)C(C#N)=C(N)Oc2[nH]nc(CCC(F)F)c21 (stereo not drawn) [Compound 2.105.] < 10 µM

What is its EC50 for Arabidopsis thaliana SHMT? Entry: COC(=O)c1cc(OC)cc(-c2cc(C#N)cc(C3(C4CCC4)C(C#N)=C(N)Oc4[nH]nc(C)c43)c2)c1 (stereo not drawn) [Compound 2.548] < 0.01 µM
